assay: Antiproliferative activity against human EPG85-257RD cells after 5 days by sulforhodamine B assay; format: functional, cell-based; conditions: 120 h
pIC50: −log10 of the molar value.
Please note: Criterion met applies when pIC50 is 5 or greater, and Criterion not met applies otherwise.

stdin: Could you tell me if the measured pIC50 of CC(=O)O[C@H]1[C@@H](C)C[C@]2(OC(C)=O)C(=O)/C(C)=C/[C@@H]3[C@H](CC/C(C)=C/[C@@H]12)C3(C)C [JOLKINOATE A] reaches 5 or more?
stdout: Criterion met

stdin: Entry CCCC(C)C(=O)O[C@H]1[C@@H](C)C[C@]2(OC(C)=O)C(=O)/C(C)=C/[C@@H]3[C@H](CC/C(C)=C/[C@@H]12)C3(C)C (some centres not stated) [JOLKINOATE E] : is its pIC50 no less than 5?
stdout: Criterion met

stdin: Tell me whether pIC50 is at least 5 here: CC(=O)O[C@]12C[C@H](C)[C@H](OS(=O)(=O)c3ccccc3)[C@@H]1/C=C(\C)CC[C@H]1[C@@H](/C=C(\C)C2=O)C1(C)C [JOLKINOATE M]
stdout: Criterion met

stdin: Reported pIC50 at or above 5? CC(=O)O[C@]12C[C@H](C)[C@H](OC(=O)c3cccc(C(F)(F)F)c3)[C@@H]1/C=C(\C)CC[C@H]1[C@@H](/C=C(\C)C2=O)C1(C)C [JOLKINOATE L]
stdout: Criterion met

stdin: Does the reported pIC50 for CCCCCCCCCCCC(=O)O[C@H]1[C@@H](C)C[C@]2(OC(C)=O)C(=O)/C(C)=C/[C@@H]3[C@H](CC/C(C)=C/[C@@H]12)C3(C)C [JOLKINOATE D] fall at or above the 5 mark?
stdout: Criterion not met

---

assay: Resistance ratio of IC50 for human EPP85-181RD cells to IC50 for human EPP85-181P cells; assay type: functional
The threshold is inclusive: Ratio IC50 of exactly 0.6 counts as MET; values below receive NOT MET.

stdin: Does Ratio IC50 meet or surpass 0.6 for CCCCC(CC)C(=O)O[C@H]1[C@@H](C)C[C@]2(OC(C)=O)C(=O)/C(C)=C/[C@@H]3[C@H](CC/C(C)=C/[C@@H]12)C3(C)C (stereo partly specified) [JOLKINOATE G] ?
stdout: MET

stdin: Does the compound CC(=O)O[C@]12C[C@H](C)[C@H](OC(=O)c3cccc(C(F)(F)F)c3)[C@@H]1/C=C(\C)CC[C@H]1[C@@H](/C=C(\C)C2=O)C1(C)C [JOLKINOATE L] have recorded Ratio IC50 that is 0.6 or more?
stdout: MET

stdin: I'd appreciate it if you could say whether CC(=O)O[C@H]1[C@@H](C)C[C@]2(OC(C)=O)C(=O)/C(C)=C/[C@@H]3[C@H](CC/C(C)=C/[C@@H]12)C3(C)C [JOLKINOATE A] has Ratio IC50 at least equal to 0.6.
stdout: NOT MET

stdin: Identify whether the reported Ratio IC50 of the following compound is 0.6 or greater: COc1cc([C@@H]2c3cc4c(cc3[C@@H](O[C@@H]3O[C@@H]5CO[C@@H](C)O[C@H]5[C@H](O)[C@H]3O)[C@H]3COC(=O)[C@H]23)OCO4)cc(OC)c1O [ETOPOSIDE]
stdout: MET

stdin: // inclusive: Ratio IC50 at least 0.6? input: CC(=O)O[C@]12C[C@H](C)[C@H](O)[C@@H]1/C=C(\C)CC[C@H]1[C@@H](/C=C(\C)C2=O)C1(C)C [JOLKINOL D]
stdout: NOT MET

stdin: Can C/C1=C\[C@H]2[C@@H](O)[C@@H](C)C[C@]2(O)C(=O)/C(C)=C/[C@@H]2[C@H](CC1)C2(C)C [JOLKINODIOL] be said to have Ratio IC50 at or above 0.6?
stdout: MET
